# PROTOCOL DETAILS: IUF_NPC3_neuronal_differentiation_120hr: Leibniz Research Institute for Environmental Medicine (IUF) 120-hour Neuronal Differentiation Assay (NPC3) (AID 2284301)
The source made the active and inactive calls. Rule for the calls: active = hit-call score of the fitted dose curve at least 0.9, where 1 is the maximum; inactive = score below 0.9.
Outcomes: y (active), n (inactive)

INSERT INTO measurements (compound, class_label) VALUES
  ('CC(C)N(C(=O)SCC(Cl)=C(Cl)Cl)C(C)C', 'n'),
  ('CSC1=N[C@@](C)(c2ccccc2)C(=O)N1Nc1ccccc1', 'n'),
  ('CCOC(=O)CC(SP(=O)(OC)OC)C(=O)OCC (stereo unspecified)', 'n'),
  ('CN1COCN(Cc2cnc(Cl)s2)C1=N[N+](=O)[O-]', 'n'),
  ('CCOP(=S)(OCC)OC(Cl)C(Cl)(Cl)Cl (stereo unspecified)', 'n'),
  ('C[N+]1(C)CCCCC1', 'n'),
  ('CCCCSP(=O)(SCCCC)SCCCC', 'n'),
  ('CCOP(=S)(OCC)Oc1cc(C)nc(C(C)C)n1', 'n'),
  ('CC(=NC#N)N(C)Cc1ccc(Cl)nc1', 'n'),
  ('CCOP(=O)(OCC)Oc1cc(C)nc(C(C)C)n1', 'n'),
  ('CON=C(C(=O)OC)c1ccccc1CON=C(C)c1cccc(C(F)(F)F)c1', 'y');
